Hello, the source for this data is patent US6229055A, in case you need it.

Protocol summary: Ca2+ binding affinity of BAPTA conjugate (Calcium Calibration Buffer Kit II)
Condition: Ca^2+, 20° C.; read-out: dissociation constant
Measure: pKd
Expect pKd as a plain number equal to -log10 of the molar concentration.

I have this compound here, O=C(O)CN(CC(=O)O)c1ccccc1OCCOc1cc(NC(=O)c2ccc3c(c2)C(=O)OC32c3cc(F)c(O)cc3Oc3cc(O)c(F)cc32)ccc1N(CC(=O)O)CC(=O)O [Compound 103] , and I need its recorded pKd.
6.77

---

Tested on: ATP-dependent dye efflux mechanisms in lymphoid-B cell lines
Protocol summary: Dye efflux from labeled cells with and without verapamil or probenecid, flow cytometry
Type: cell-based
Condition: No drug
Measure: Mean Fluorescence intensity of labeled cells
Please state the value as a number alone, without comment.

Worked examples follow.
{"Compound": "CC(=O)Oc1ccc2c(c1)Oc1cc(OC(C)=O)ccc1C21OC(=O)c2c(F)c(F)c(F)c(F)c21 [Compound 25, 4,5,6,7-tetrafluorofluorescein Diacetate]", "Reported value": 732}
{"Compound": "CC(=O)Oc1cc2c(cc1Cl)C1(OC(=O)c3c(F)c(F)c(F)c(F)c31)c1cc(Cl)c(OC(C)=O)cc1O2", "Reported value": 15.6}
{"Compound": "CC(=O)Oc1c(F)cc2c(c1F)Oc1c(cc(F)c(OC(C)=O)c1F)C21OC(=O)c2ccccc21", "Reported value": 2.9}

Let us move to another entry and its Mean Fluorescence intensity of labeled cells.
// Mean Fluorescence intensity of labeled cells lookup, key: CC(=O)Oc1cc2c(cc1F)C1(OC(=O)c3c(F)c(F)c(F)c(F)c31)c1cc(F)c(OC(C)=O)cc1O2
26.9

---

Protocol summary: pH titration of fluorophores (pKa)
Condition: Table 1
Below: a set of entries, each annotated with reported pKa.
Please respond with just the number, no unit label.

Worked examples, 5 molecules total:
{"Molecule": "O=C1OC2(c3cc(F)c(O)cc3Oc3cc(O)c(F)cc32)c2ccccc21", "pKa": 4.7}
{"Molecule": "O=C(O)CSc1c(F)c(F)c2c(c1F)C1(OC2=O)c2ccc(O)cc2Oc2cc(O)ccc21", "pKa": 4.5}
{"Molecule": "O=C(O)c1ccc(-c2c3cc(F)c(=O)cc-3oc3cc(O)c(F)cc23)c(S(=O)(=O)O)c1", "pKa": 4.3}
{"Molecule": "O=C1OC2(c3cc(Cl)c(O)cc3Oc3cc(O)c(Cl)cc32)c2ccccc21 [2',7'-dichlorofluorescein, reference compound]", "pKa": 5.1}
{"Molecule": "O=C1OC2(c3cc(F)c(O)cc3Oc3cc(O)c(F)cc32)c2c(F)c(F)c(F)c(F)c21", "pKa": 4.8}

# input molecule: O=c1c(F)c2oc3c(F)c(O)c(F)c(F)c3c(-c3c(F)c(F)c(F)c(F)c3F)c-2c(F)c1F ; wanted: its pKa
2.8

# get_value(readout='pKa', item= O=C1OC2(c3ccc(O)cc3Oc3cc(O)ccc32)c2c(F)c(F)c(F)c(F)c21 )
6.1

So what's the measured pKa for this one? O=C1OC2(c3cc(Cl)c(O)cc3Oc3cc(O)c(Cl)cc32)c2c(F)c(F)c(F)c(F)c21
4.2

Requested read-out: pKa. Entry: O=C1OC2(c3ccc(O)cc3Oc3cc(O)ccc32)c2ccccc21 [fluorescein, reference compound]
6.5

---

Protocol summary: Spectral properties of selected fluorinated fluoresceins and rhodols
Assay type: physicochemical
Condition: absorption maximum
Measure: Abs. (nm)
Response body: numeric value in nm, unit text excluded.

Below, 5 compounds whose answers are already recorded.
{"Compound": "[N-]=[N+]=Nc1c(F)c(F)c2c(c1F)C1(OC2=O)c2ccc(O)cc2Oc2cc(O)ccc21", "Abs. (nm)": 507}
{"Compound": "Nc1c(F)c(F)c2c(c1F)C1(OC2=O)c2ccc(O)cc2Oc2cc(O)ccc21", "Abs. (nm)": 503}
{"Compound": "O=C1OC2(c3cc(Cl)c(O)cc3Oc3cc(O)c(Cl)cc32)c2c(F)c(F)c(F)c(F)c21", "Abs. (nm)": 520}
{"Compound": "O=C(O)c1ccc(-c2c3cc(F)c(=O)cc-3oc3cc(O)c(F)cc23)c(S(=O)(=O)O)c1", "Abs. (nm)": 497}
{"Compound": "O=C(O)CSc1c(F)c(F)c2c(c1F)C1(OC2=O)c2ccc(O)cc2Oc2cc(O)ccc21", "Abs. (nm)": 507}

Please turn your attention to the following entry.
What value of Abs. has been reported for the following compound? O=C1OC2(c3ccc(O)cc3Oc3cc(O)ccc32)c2ccccc21 [fluorescein, reference compound]
490

---

Protocol summary: Spectral properties of selected fluorinated fluoresceins and rhodols
Format: physicochemical
Condition: extinction coefficient; value is ε × 10^-3
Measure: ε × 10^-3 (cm^-1 M^-1)
Express your answer in cm^-1 M^-1, writing the number without its unit.

# query: ε × 10^-3 of entry O=C(O)c1ccc(-c2c3cc(F)c(=O)cc-3oc3cc(O)c(F)cc23)c(S(=O)(=O)O)c1
83.8

Entry O=C1OC2(c3ccc(O)cc3Oc3cc(O)ccc32)c2c(F)c(F)c(F)c(F)c21 [Compound 34, 4,5,6,7-tetrafluorofluorescein] has what ε × 10^-3?
85.6

May I ask what ε × 10^-3 has been recorded for O=C1OC2(c3cc(F)c(O)cc3Oc3cc(O)c(F)cc32)c2c(F)c(F)c(F)c(F)c21 [Compound 26, 2',4,5,6,7,7'-hexafluorofluorescein] ?
81.2

---

Protocol summary: Spectral properties of selected fluorinated fluoresceins and rhodols
Assay type: physicochemical
Condition: extinction coefficient; value is ε × 10^-3
Measure: ε × 10^-3 (cm^-1 M^-1)
The figure you give is taken to be in cm^-1 M^-1; do not add the unit.

These recorded examples may help you get a feel for the data.
{"Compound": "O=C1OC2(c3ccc(O)cc3Oc3cc(O)ccc32)c2ccccc21 [fluorescein, reference compound]", "Measure": "ε × 10^-3", "Quantity unit": "cm^-1 M^-1", "Reported value": 82.2}
{"Compound": "O=C1OC2(c3cc(Cl)c(O)cc3Oc3cc(O)c(Cl)cc32)c2c(F)c(F)c(F)c(F)c21", "Measure": "ε × 10^-3", "Quantity unit": "cm^-1 M^-1", "Reported value": 88.5}
{"Compound": "O=C1OC2(c3cc(F)c(O)cc3Oc3cc(O)c(F)cc32)c2ccccc21", "Measure": "ε × 10^-3", "Quantity unit": "cm^-1 M^-1", "Reported value": 84.7}
{"Compound": "O=C(O)CSc1c(F)c(F)c2c(c1F)C1(OC2=O)c2cc(F)c(O)cc2Oc2cc(O)c(F)cc21", "Measure": "ε × 10^-3", "Quantity unit": "cm^-1 M^-1", "Reported value": 87.5}
{"Compound": "Nc1c(F)c(F)c2c(c1F)C1(OC2=O)c2ccc(O)cc2Oc2cc(O)ccc21", "Measure": "ε × 10^-3", "Quantity unit": "cm^-1 M^-1", "Reported value": 77.5}
{"Compound": "O=C(O)CSc1c(F)c(F)c2c(c1F)C1(OC2=O)c2ccc(O)cc2Oc2cc(O)ccc21", "Measure": "ε × 10^-3", "Quantity unit": "cm^-1 M^-1", "Reported value": 63.5}

# next compound below
Query: ε × 10^-3; subject: [N-]=[N+]=Nc1c(F)c(F)c2c(c1F)C1(OC2=O)c2ccc(O)cc2Oc2cc(O)ccc21
79.9

---

Protocol summary: Spectral properties of selected fluorinated fluoresceins and rhodols
Format: physicochemical
Condition: emission maximum
Measure: Em. (nm)
Field: numeric (nm). Do not append units.

For orientation, consider the following solved cases.
{"Compound": "O=C1OC2(c3cc(F)c(O)cc3Oc3cc(O)c(F)cc32)c2c(F)c(F)c(F)c(F)c21", "Quantity unit": "nm", "Em.": 527}
{"Compound": "O=C(O)c1ccc(-c2c3cc(F)c(=O)cc-3oc3cc(O)c(F)cc23)c(S(=O)(=O)O)c1", "Quantity unit": "nm", "Em.": 517}
{"Compound": "Nc1c(F)c(F)c2c(c1F)C1(OC2=O)c2ccc(O)cc2Oc2cc(O)ccc21", "Quantity unit": "nm", "Em.": 522}
{"Compound": "O=C(O)CSc1c(F)c(F)c2c(c1F)C1(OC2=O)c2ccc(O)cc2Oc2cc(O)ccc21", "Quantity unit": "nm", "Em.": 526}

Consider the additional compound presented here.
GET /values?readout=Em.&item= O=C1OC2(c3cc(Cl)c(O)cc3Oc3cc(O)c(Cl)cc32)c2c(F)c(F)c(F)c(F)c21
538

---

Protocol summary: Photodecomposition on illumination in fluorometer
Format: physicochemical
Condition: % of decreased fluorescence intensity after 33 minutes of illumination in fluorometer at wavelength of maximum excitation
Description: *% of decreased fluorescence intensity after 33 minutes of illumination in fluorometer at wavelength of maximum excitation
Listed next: entries and their corresponding photodecomposition.

Tell me the measured photodecomposition of O=c1c(F)c2oc3c(F)c(O)c(F)c(F)c3c(-c3c(F)c(F)c(F)c(F)c3F)c-2c(F)c1F , please.
4.0%

Which photodecomposition is listed for O=C1OC2(c3ccc(O)cc3Oc3cc(O)ccc32)c2ccccc21 [fluorescein, reference compound] ?
17%

Name the reported photodecomposition value associated with the molecule O=C1OC2(c3cc(F)c(O)cc3Oc3cc(O)c(F)cc32)c2ccccc21
8.0%

Entry O=C1OC2(c3cc(Cl)c(O)cc3Oc3cc(O)c(Cl)cc32)c2c(F)c(F)c(F)c(F)c21 has what photodecomposition?
3.0%

Which photodecomposition is listed for O=C1OC2(c3ccc(O)cc3Oc3cc(O)ccc32)c2c(F)c(F)c(F)c(F)c21 ?
6.6%

Query: photodecomposition; subject: O=C(O)CSc1c(F)c(F)c2c(c1F)C1(OC2=O)c2ccc(O)cc2Oc2cc(O)ccc21
5.0%

Please look up its photodecomposition: O=C(O)c1ccc(-c2c3cc(F)c(=O)cc-3oc3cc(O)c(F)cc23)c(S(=O)(=O)O)c1
7.3%

Looking for the measured photodecomposition of O=C1OC2(c3cc(F)c(O)cc3Oc3cc(O)c(F)cc32)c2c(F)c(F)c(F)c(F)c21 , can you help?
4.0%
